MEASUREMENT_TARGET: T1, EGFR-Fc fusion protein (recombinant EGFR extracellular region-Fc) (human, UniProt P00533 25-645)
T1 construct: extracellular domain; not shown: Fc part supplied by vector pABG1
PROCEDURE_DETAILS: BLI ForteBio QKe, biotinylated EGFR-Fc on streptavidin sensor, antibody 20 nM; fold reduction of affinity, parent Ame55 = 1;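 note: parent antibody affinity set as 1, with values giving the fold drop in affinity of each mutant antibody relative to that parent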
Recorded measurements of Affinity change, one per entry
// units = fold; emit number, no label

Prompt: Return reported Affinity change; argument: Ame55 mutant, light chain 55P (antibody, V domains shown, Mutant of Ame55) VH: EVQLVQSGAEVKKPGESLKISCKGSGYSFTSYWIGWVRQMPGKGLEWMGIIYPGDSDTRYSPSFQGQVTISADKSISTAYLQWSSLKASDTAMYYCARGIIYPSNVAVWGQGTLVTVSS VL: SYELTQPPSVSVAPGQTARITCSGDALGDKYASWYQQKPGQAPVLVIYEDSKRPPGIPERFSGSNSGNTATLTISGTQAEDEADYYCSVWDGDWGMPVFGGGTKLTVLG
Completion: 2

Prompt: Endpoint output: Affinity change of Ame55 mutant, heavy chain 108A (antibody, V domains shown, Mutant of Ame55) VH: EVQLVQSGAEVKKPGESLKISCKGSGYSFTSYWIGWVRQMPGKGLEWMGIIYPGDSDTRYSPSFQGQVTISADKSISTAYLQWSSLKASDTAMYYCARGIIYPSNVAAWGQGTLVTVSS VL: SYELTQPPSVSVAPGQTARITCSGDALGDKYASWYQQKPGQAPVLVIYEDSKRPSGIPERFSGSNSGNTATLTISGTQAEDEADYYCSVWDGDWGMPVFGGGTKLTVLG . Value?
Completion: 5
